This section lists pIC50 readings for Prothrombin (Homo sapiens).
Give bare numbers, as −log10 of the molar value.

Consider the following illustrative entries.
INSERT INTO assay_data (structure_notation, assay_value) VALUES
  ('N=C(N)NCCC[C@H](NC(=O)[C@@H]1CCCN1C(=O)[C@H](N)Cc1ccccc1)C(=O)CCl', 8.18),
  ('CC(C)C[C@@H](NC(=O)[C@H](O)Cc1ccc(O)cc1)C(=O)N1[C@H](C(=O)N[C@H](CO)CCCNC(=N)N)C[C@@H]2CC[C@@H](O)C[C@@H]21', 6.30),
  ('CC(C)C[C@@H](NC(=O)[C@H](O)Cc1ccc(O)cc1)C(=O)N1CCC[C@H]1C(=O)NCCCNC(=N)N', 6.73);

Switching to the query record.
The reported value for CC(C)C[C@@H](NC(=O)[C@H](O)Cc1ccc(OS(=O)(=O)O)c(Cl)c1)C(=O)N1[C@H](C(=O)N[C@H](C=O)CCCNC(=N)N)C[C@@H]2CC[C@@H](O)C[C@@H]21 in terms of pIC50 is 7.38
